System: NCI-H460 lung
test-name: NCI-60 one-dose screen, 48 h
applied-conditions: 10 µM unless noted
This is part of a sample that, as a whole, favours compounds with a hit. Of some 83,000 tested, about 20% had one in any assay. Active and inactive are the calls of the source. How the source made its calls: active means growth percent below 10; inactive means the rest.
Classes used: active, inactive

{"molecule": "CC(=O)OC[C@@]1(C)C2CC[C@]3(C)C(CC=C4C5CC(C)(C)CC[C@]5(C(=O)Nc5ccc(F)cc5)CC[C@]43C)[C@@]2(C)C[C@@H](OC(C)=O)[C@@H]1OC(C)=O (some centres undefined)", "class": "inactive"}
{"molecule": "C=C1CC[C@@H]2[C@]3(C)COC(c4cn[nH]c4-c4ccc(Br)cc4)O[C@@H]3CC[C@@]2(C)[C@@H]1C/C=C1/C(=O)OCC1O (some centres undefined)", "class": "active"}
{"molecule": "CC(C)c1ccc2c(N)c(C(=O)Nc3cccc(C(F)(F)F)c3)sc2n1", "class": "inactive"}
{"molecule": "COc1cc2c3c(n(CCCN4CCC[C@@H]4CO)c(=O)c2cc1OC)-c1cc2c(cc1C3=O)OCO2", "class": "active"}
{"molecule": "CCCSc1nc(NCCc2c[nH]c3ccccc23)c(C#N)c(-c2ccccc2)n1", "class": "inactive"}
{"molecule": "N/C(=N\\c1nc2ccccc2s1)NC(=O)NCCCCCCO", "class": "inactive"}
{"molecule": "COc1ccc2nc(Nc3cccc(NC(=O)c4ccc(CN5CCCN(C)CC5)c(C(F)(F)F)c4)c3)ccc2c1", "class": "active"}
{"molecule": "CCOC(=O)C1=C(N)N(c2ccccc2)C2=C(C(=O)CC(C)(C)C2)C1c1ccc([N+](=O)[O-])cc1 (centres undefined)", "class": "inactive"}
{"molecule": "Cc1ccc(-n2c(-c3cc4ccccc4nc3Cl)noc2=O)cc1", "class": "inactive"}
{"molecule": "Clc1cccc(N/N=C/c2c[nH]c3ccc(Br)cc23)n1", "class": "inactive"}
{"molecule": "Nc1nnc(-c2c[nH]c3ncc(Br)cc23)c(-c2c[nH]c3ccc(F)cc23)n1", "class": "inactive"}
{"molecule": "CCCCNC(=S)Nc1ccc(OCc2nc3ccccc3[nH]2)cc1", "class": "inactive"}
{"molecule": "COc1ccc(C(=O)/C=C/c2cccnc2)cc1S(N)(=O)=O", "class": "inactive"}
{"molecule": "Cc1ccc(C(=O)CSc2nc3ccc(C)cc3c(=O)n2-c2ccc(F)cc2)cc1", "class": "inactive"}
{"molecule": "N/C(=N\\c1nc2ccccc2s1)NC(=O)Nc1ccccc1Br", "class": "active"}
{"molecule": "COc1cc2oc(-c3cccc(C(=O)Nc4cccc([N+](=O)[O-])c4)c3)cc(=O)c2c(OC)c1OC", "class": "inactive"}
{"molecule": "CN(C)c1ccnc(CNCCSC2(c3ccc(C(F)(F)F)cc3)c3ccccc3C=Cc3ccccc32)c1", "class": "active"}
{"molecule": "CC(=O)c1c(N)c(C#N)cn1-c1ccc(Cl)cc1Cl", "class": "inactive"}
{"molecule": "O=C(c1ccccc1)c1ccc2nc(-c3ccc(F)cc3)[nH]c2c1", "class": "inactive"}

----------
System: SF-539 CNS
test-name: NCI-60 one-dose screen, 48 h (100 = growth as untreated, 0 = no growth, -100 = all killed)
applied-conditions: 10 µM unless noted
About 83,000 compounds went through this panel and 20% of them were active in at least one assay; those are over-represented in the sample as a whole.
metric-name: growth (%)

{"compound": "CC1(C)CC[C@]2(C(=O)Nc3ccc(Br)cc3)CC[C@]3(C)C(=CCC4[C@@]5(C)C[C@@H](O)[C@H](O)[C@@](C)(CO)C5CC[C@]43C)C2C1 (some centres undefined)", "metric-name": "growth", "measured-result": -5.36}
{"compound": "CC(=O)Nc1cccc(Nc2nc(N[C@H]3CCCc4ccccc43)c3ccccc3n2)c1", "metric-name": "growth", "measured-result": 97.2}
{"compound": "COc1ccc(-c2nc(SCC(C)C)nc(NCCc3c[nH]c4ccccc34)c2C#N)cc1", "metric-name": "growth", "measured-result": 48}
{"compound": "COc1ccc2oc3c4[nH]c5ccccc5c4c4c(c3c2c1)C(=O)N(C(=O)OC(C)(C)C)C4=O", "metric-name": "growth", "measured-result": -24.8}
{"compound": "COc1ccc(C(=O)/C=C/c2c(F)cccc2Cl)cc1S(N)(=O)=O", "metric-name": "growth", "measured-result": -62.9}
{"compound": "CC(C)CSc1nc(NCCc2c[nH]c3ccccc23)c(C#N)c(-c2ccc(F)cc2)n1", "metric-name": "growth", "measured-result": 47.9}
{"compound": "COc1ccc(C(=O)/C=C/c2ccc(OC)c(OCc3ccccc3)c2)cc1OC", "metric-name": "growth", "measured-result": -27.2}
{"compound": "Cc1ccc2c(N)c(C(=O)Nc3ccc(-c4ccccc4)cc3)sc2n1", "metric-name": "growth", "measured-result": 67.7}
{"compound": "COc1ccc(-c2ccc(SCC(=O)NCCc3ccc(S(N)(=O)=O)cc3)nn2)cc1", "metric-name": "growth", "measured-result": 88.7}
